- test_target: purified human MPO (Homo sapiens, UniProt P05164)
- Sequence (P05164 279-745 limits assumed): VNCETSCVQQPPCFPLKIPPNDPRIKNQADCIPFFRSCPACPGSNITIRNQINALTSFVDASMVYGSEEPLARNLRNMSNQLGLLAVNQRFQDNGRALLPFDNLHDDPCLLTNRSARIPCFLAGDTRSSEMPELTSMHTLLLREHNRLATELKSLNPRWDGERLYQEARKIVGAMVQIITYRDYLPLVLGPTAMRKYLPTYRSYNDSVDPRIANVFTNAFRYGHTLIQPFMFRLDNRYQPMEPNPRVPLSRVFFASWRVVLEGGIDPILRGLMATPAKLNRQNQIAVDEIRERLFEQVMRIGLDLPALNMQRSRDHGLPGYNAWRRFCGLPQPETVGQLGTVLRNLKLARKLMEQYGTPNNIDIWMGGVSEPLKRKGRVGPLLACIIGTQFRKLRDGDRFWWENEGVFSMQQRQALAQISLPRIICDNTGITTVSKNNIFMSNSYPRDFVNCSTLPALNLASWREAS
- Sequence (P05164 165-273 limits assumed): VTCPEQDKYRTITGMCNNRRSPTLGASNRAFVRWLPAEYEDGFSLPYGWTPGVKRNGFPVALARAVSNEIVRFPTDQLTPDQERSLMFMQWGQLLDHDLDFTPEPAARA
measured_parameter: Ki (nM)
Respond with the bare value in nM.

input: For N[C@@H](CCC(=O)N[C@@H](CS)C(=O)NCC(=O)O)C(=O)O , what is its reported Ki?
output: 80
